- Tested on: Puccinia recondita tritici = Puccinia triticina (PUCCRT)
- test-details: Fungicidal activity vs. leaf rust on wheat plants (1-day protectant spray)
- Assay type: in vivo
- test-conditions: wheat (variety Yuma) sprayed at 50 ppm, inoculated next day, disease severity evaluated 7-9 days later, read-out: Puccinia Rating (% Disease Control @ 50 ppm)
quantity-kind: pest or weed control at 50 ppm

molecule | result
N#Cc1ccc(C#Cc2ccc(C(F)(F)C(O)(c3cncnc3)c3ccc(F)cc3F)nc2)c(F)c1 (racemic) | 80 to 100%
OC(c1cncnc1)(c1ccc(F)cc1F)C(F)(F)c1ccc(OCc2ccc(F)c(F)c2)cn1 (racemic) | 60 to 79%
OC(c1cncnc1)(c1ccc(F)cc1F)C(F)(F)c1ccc(C#Cc2ccc(OC(F)(F)F)cc2)cn1 (racemic) | 80 to 100%
OC(c1cncnc1)(c1ccc(F)cc1F)C(F)(F)c1ccc(OCc2ccc(Cl)c(F)c2)cn1 (racemic) | 60 to 79%
N#Cc1ccc(C#Cc2ccc(C(F)(F)C(O)(c3ccc(Cl)cc3)c3cncnc3)nc2)cc1 (racemic) | 60 to 79%
OC(c1cncnc1)(c1ccc(F)cc1F)C(F)(F)c1ccc(OCc2ccc(Cl)cc2)cn1 (racemic) | 80 to 100%
COc1ccc(C#Cc2ccc(C(F)(F)C(O)(c3cncnc3)c3ccc(F)cc3F)nc2)cc1 (racemic) | 60 to 79%
O=C(Nc1ccc(C#Cc2ccc(C(F)(F)C(O)(c3cncnc3)c3ccc(F)cc3F)nc2)cc1)C(F)(F)F (racemic) | < 40%
OC(c1cncnc1)(c1ccc(F)cc1F)C(F)(F)c1ccc(-c2ccc(OC(F)(F)F)cc2)cn1 (racemic) | < 40%
CC(C)(C)C(O)(c1cncnc1)C(F)(F)c1ccc(C#Cc2ccc(Cl)cc2)cn1 (racemic) | < 40%
CC(C)C(O)(c1cncnc1)C(F)(F)c1ccc(C#Cc2ccc(Cl)cc2)cn1 (racemic) | < 40%
CNc1ccc(C#Cc2ccc(C(F)(F)C(O)(c3cncnc3)c3ccc(F)cc3F)nc2)cc1 (racemic) | < 40%
OC(c1cncnc1)(c1ccc(F)cc1F)C(F)(F)c1ccc(C#Cc2ccc(OC(F)F)cc2)cn1 (racemic) | 80 to 100%
Nc1ccc(C#Cc2ccc(C(F)(F)C(O)(c3cncnc3)c3ccc(F)cc3F)nc2)cc1 (racemic) | 60 to 79%
OC(c1cncnc1)(c1ccc(F)cc1F)C(F)(F)c1ccc(OCc2ccc(Cl)c(Cl)c2)cn1 (stereo not drawn) | 60 to 79%
